# SYSTEM_UNDER_TEST: T1, gp16 CTD (C-terminal domain of DNA packaging ATPase) (bacteriophage phi29, UniProt P11014 223-332)
# T1 sequence: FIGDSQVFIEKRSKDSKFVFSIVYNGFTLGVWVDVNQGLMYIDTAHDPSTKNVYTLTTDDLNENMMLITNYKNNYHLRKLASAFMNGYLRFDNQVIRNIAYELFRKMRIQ
# ASSAY_COMMENT: fluorescence intensity titration; Fluorescence: 50 mM sodium phosphate pH 6.5, 200 mM NaCl, temperature not stated; NMR: same buffer plus 0.02% NaN3, 2 mM DSS, ~100 uM protein, 303 K
# CONDITIONS: protein: recombinant; tags: His tag implied (pET30a NdeI/XhoI, Talon resin); label: 3' fluorescein (36FAM); hairpin
ENDPOINT_LABEL: Kd (µM)
Express the result in µM but write the number alone.

(Q) Can you look up the measured Kd of pRNA A-helix mimic, 3'-fluorescein (structured_RNA) RNA: UCAAUGGUACGGUACUUCCAUUGUCAUGUUUUUCAUGGCAAAAGUGCACGCUACUUUGAU for me?
(A) 3.2
